molecular target: MAP4K5 (human) (UniProt Q9Y4K4); assay: KINOMEscan competition binding; details: compound 10.0 µM
Sequence (Q9Y4K4 whole entry, looked up): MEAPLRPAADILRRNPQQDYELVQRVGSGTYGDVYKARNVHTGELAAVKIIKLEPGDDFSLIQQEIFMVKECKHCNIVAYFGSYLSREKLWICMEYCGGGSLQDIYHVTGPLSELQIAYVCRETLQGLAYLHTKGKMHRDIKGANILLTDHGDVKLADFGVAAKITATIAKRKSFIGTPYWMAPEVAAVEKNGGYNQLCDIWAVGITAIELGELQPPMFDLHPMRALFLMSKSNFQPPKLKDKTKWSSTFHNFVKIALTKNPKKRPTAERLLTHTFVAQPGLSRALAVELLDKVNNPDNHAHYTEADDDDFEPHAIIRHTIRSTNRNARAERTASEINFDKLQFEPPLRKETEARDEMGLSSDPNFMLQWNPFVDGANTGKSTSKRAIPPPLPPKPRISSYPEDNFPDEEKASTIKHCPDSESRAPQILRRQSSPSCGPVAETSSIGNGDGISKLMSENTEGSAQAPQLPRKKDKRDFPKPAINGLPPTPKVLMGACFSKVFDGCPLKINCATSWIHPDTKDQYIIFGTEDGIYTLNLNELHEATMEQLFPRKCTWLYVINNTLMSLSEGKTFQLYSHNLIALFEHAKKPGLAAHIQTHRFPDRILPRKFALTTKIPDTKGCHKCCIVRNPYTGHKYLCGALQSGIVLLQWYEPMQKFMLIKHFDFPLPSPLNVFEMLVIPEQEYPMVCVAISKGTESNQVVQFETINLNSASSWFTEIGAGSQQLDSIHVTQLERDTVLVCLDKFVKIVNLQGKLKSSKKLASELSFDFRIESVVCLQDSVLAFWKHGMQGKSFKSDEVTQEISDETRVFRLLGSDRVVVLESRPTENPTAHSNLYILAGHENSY
// assign label 1 if kinase still bound, per cent of control falls strictly below 0.7%, else label 0 (ties count as label 0)

INSERT INTO results (cpd_smiles, assigned_class) VALUES
  ('NC(=O)Nc1cc(-c2cccc(F)c2)sc1C(=O)N[C@@H]1CCCNC1', 'label 1'),
  ('O=C(Nc1cccc(Nc2ncc(Br)c(NCCc3cnc[nH]3)n2)c1)N1CCCC1', 'label 0'),
  ('COc1cc(N2CCN(C)CC2)ccc1Nc1ncc2c(n1)N(C)c1ccccc1C(=O)N2C', 'label 0'),
  ('COc1cc2ncn(-c3cc(OCc4ccccc4C(F)(F)F)c(C(N)=O)s3)c2cc1OC', 'label 0');

----------
biological target: LYN (human) (UniProt P07948); assay: KINOMEscan competition binding; settings: compound 10.0 µM
Sequence (P07948 whole entry, looked up): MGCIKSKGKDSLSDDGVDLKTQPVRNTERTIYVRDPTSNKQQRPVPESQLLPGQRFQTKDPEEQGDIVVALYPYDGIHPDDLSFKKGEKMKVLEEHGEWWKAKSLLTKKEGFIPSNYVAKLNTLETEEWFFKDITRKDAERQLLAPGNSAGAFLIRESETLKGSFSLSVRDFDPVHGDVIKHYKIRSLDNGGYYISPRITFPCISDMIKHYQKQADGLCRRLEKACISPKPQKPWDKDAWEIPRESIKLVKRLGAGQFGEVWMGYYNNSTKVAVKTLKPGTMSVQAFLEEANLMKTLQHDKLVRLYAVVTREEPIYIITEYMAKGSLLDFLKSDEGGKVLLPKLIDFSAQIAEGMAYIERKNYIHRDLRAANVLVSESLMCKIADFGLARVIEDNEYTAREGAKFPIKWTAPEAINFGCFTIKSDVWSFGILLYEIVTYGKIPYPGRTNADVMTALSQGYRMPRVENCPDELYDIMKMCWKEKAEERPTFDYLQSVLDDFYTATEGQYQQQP
Kindly apply the following: t if kinase still bound, per cent of control is less than 90%, f in every other case.

INSERT INTO assay_data (cpd_smiles, assay_system, assigned_class) VALUES
  ('COc1cc2ncn(-c3cc(OCc4ccccc4C(F)(F)F)c(C(N)=O)s3)c2cc1OC', 'LYN (human) (UniProt P07948)', 't'),
  ('O=c1cc(N2CCOCC2)oc2c(-c3cccc4c3sc3ccccc34)cccc12', 'LYN (human) (UniProt P07948)', 'f'),
  ('COc1cc(N2CCN(C)CC2)ccc1Nc1ncc2c(n1)N(C)c1ccccc1C(=O)N2C', 'LYN (human) (UniProt P07948)', 'f'),
  ('COc1cc2ncnc(-n3nc(-c4ccccn4)nc3N)c2cc1OC', 'LYN (human) (UniProt P07948)', 't');

----------
biological target: DCLK2 (human) (UniProt Q8N568); assay: KINOMEscan competition binding; conditions: compound 10.0 µM
Sequence (Q8N568 whole entry, looked up): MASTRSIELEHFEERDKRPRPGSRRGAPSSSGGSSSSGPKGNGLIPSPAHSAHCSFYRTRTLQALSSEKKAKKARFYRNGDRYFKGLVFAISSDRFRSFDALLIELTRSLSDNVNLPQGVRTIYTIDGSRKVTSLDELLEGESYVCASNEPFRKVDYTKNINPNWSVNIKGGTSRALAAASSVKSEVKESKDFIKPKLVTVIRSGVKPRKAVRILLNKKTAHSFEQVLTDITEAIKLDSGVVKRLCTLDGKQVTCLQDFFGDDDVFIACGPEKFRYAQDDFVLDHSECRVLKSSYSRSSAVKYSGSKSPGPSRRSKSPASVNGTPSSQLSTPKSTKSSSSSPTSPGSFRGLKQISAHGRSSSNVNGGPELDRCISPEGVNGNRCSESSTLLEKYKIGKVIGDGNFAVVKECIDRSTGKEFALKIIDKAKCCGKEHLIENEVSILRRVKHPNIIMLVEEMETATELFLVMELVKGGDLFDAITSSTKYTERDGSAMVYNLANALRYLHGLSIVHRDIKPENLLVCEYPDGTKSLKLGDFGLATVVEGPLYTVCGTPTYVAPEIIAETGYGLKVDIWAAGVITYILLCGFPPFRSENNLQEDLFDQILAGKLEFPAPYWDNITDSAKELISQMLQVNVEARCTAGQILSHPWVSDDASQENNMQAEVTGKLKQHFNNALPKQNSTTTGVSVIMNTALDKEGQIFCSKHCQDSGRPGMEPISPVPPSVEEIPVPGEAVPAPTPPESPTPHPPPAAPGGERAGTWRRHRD
// values below are reported kinase still bound, per cent of control
measured.endpoint: kinase still bound, per cent of control (%)

INSERT INTO assay_data (cpd_smiles, meas_value) VALUES
  ('CCN1CCN(C(=O)Cc2ccc(Nc3ncc(F)c(Nc4ccc(C(=O)Nc5ccccc5Cl)cc4)n3)cc2)CC1', 88),
  ('CS(=O)(=O)N1CCN(Cc2cc3nc(-c4cccc5[nH]ncc45)nc(N4CCOCC4)c3s2)CC1', 100),
  ('N#CCNC(=O)c1ccc(-c2ccnc(Nc3ccc(N4CCOCC4)cc3)n2)cc1', 55);

----------
biological target: STK24 (human) (UniProt Q9Y6E0); assay: KINOMEscan competition binding; conditions: compound 10.0 µM
Sequence (Q9Y6E0 whole entry, looked up): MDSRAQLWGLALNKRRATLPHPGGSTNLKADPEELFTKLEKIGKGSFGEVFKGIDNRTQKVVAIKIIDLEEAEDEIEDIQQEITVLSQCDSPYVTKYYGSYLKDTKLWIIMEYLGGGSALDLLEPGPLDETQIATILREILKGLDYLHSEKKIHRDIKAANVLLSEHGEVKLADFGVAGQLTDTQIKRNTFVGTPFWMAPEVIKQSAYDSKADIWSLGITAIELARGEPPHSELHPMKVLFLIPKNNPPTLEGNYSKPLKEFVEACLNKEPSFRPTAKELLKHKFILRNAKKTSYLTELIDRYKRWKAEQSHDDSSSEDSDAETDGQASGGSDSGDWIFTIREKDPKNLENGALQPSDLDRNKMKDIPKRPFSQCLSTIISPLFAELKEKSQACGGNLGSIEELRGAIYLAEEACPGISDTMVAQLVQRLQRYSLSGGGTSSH
measured.endpoint: kinase still bound, per cent of control (%)

INSERT INTO assay_data (cpd_smiles, meas_value) VALUES
  ('N#CCNC(=O)c1ccc(-c2ccnc(Nc3ccc(N4CCOCC4)cc3)n2)cc1', 64),
  ('O=C(Nc1cccc(Nc2ncc(Br)c(NCCc3cnc[nH]3)n2)c1)N1CCCC1', 2),
  ('CNC(=O)c1ccc(Nc2cc(Nc3ccccc3S(=O)(=O)C(C)C)c3cc[nH]c3n2)nc1', 100),
  ('O=C1NC(=O)/C(=C/c2ccc3nccc(-c4ccncc4)c3c2)S1', 87);

----------
Attribute: kinase still bound, per cent of control
molecular target: DYRK1B (human); assay: KINOMEscan competition binding; settings: compound 10.0 µM
measured.endpoint: kinase still bound, per cent of control (%)

INSERT INTO assay_data (cpd_smiles, unit_abbreviation, meas_value) VALUES
  ('CNC(=O)c1cc(Oc2ccc(NC(=O)Nc3ccc(Cl)c(C(F)(F)F)c3)cc2)ccn1', '%', 92),
  ('N#CCNC(=O)c1ccc(-c2ccnc(Nc3ccc(N4CCOCC4)cc3)n2)cc1', '%', 90),
  ('COCC(=O)NC/C=C/c1ccc2ncnc(Nc3ccc(Oc4ccc(C)nc4)c(C)c3)c2c1', '%', 92);

----------
Items are presented alongside their recorded kinase still bound, per cent of control.
target: EPHA4 (human) (UniProt P54764); experiment: KINOMEscan competition binding; details: compound 10.0 µM
Sequence (P54764 whole entry, looked up): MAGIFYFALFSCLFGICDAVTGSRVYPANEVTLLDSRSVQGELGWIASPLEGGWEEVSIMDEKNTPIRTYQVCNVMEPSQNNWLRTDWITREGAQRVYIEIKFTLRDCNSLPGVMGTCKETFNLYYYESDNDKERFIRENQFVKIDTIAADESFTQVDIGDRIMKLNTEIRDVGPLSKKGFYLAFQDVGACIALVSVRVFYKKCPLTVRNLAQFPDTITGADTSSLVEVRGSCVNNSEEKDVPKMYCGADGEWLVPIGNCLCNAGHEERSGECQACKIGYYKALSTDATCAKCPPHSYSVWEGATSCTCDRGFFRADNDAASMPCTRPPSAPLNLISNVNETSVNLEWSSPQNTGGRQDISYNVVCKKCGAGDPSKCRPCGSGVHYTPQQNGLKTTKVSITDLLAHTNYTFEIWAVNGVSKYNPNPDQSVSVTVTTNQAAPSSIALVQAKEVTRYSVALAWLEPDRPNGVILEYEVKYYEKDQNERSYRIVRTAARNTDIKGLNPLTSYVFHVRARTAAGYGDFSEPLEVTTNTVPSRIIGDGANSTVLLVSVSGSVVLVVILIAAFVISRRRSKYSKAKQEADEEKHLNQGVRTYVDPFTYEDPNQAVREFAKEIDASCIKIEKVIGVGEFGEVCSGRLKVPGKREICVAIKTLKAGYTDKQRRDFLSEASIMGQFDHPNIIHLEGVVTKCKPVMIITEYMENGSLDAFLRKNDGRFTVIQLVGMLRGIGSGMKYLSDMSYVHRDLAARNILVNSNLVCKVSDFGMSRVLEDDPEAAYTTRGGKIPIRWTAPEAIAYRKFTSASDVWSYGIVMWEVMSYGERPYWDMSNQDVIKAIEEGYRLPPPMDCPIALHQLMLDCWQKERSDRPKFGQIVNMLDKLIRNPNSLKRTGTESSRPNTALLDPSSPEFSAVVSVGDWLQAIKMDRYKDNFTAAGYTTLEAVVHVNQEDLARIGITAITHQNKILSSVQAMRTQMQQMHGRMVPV
measured.endpoint: kinase still bound, per cent of control

INSERT INTO assay_data (cpd_smiles, meas_value) VALUES
  ('O=C1NC(=O)/C(=C/c2ccc3nccc(-c4ccncc4)c3c2)S1', '96%'),
  ('COc1cc(N2CCN(C)CC2)ccc1Nc1ncc2c(n1)N(C)c1ccccc1C(=O)N2C', '100%'),
  ('C[C@@H](Oc1cc(-c2cnn(C3CCNCC3)c2)cnc1N)c1c(Cl)ccc(F)c1Cl', '6%'),
  ('COc1cc2ncn(-c3cc(OCc4ccccc4C(F)(F)F)c(C(N)=O)s3)c2cc1OC', '83%'),
  ('CCN(CC)CCCCNc1ncc2cc(-c3cc(OC)cc(OC)c3)c(NC(=O)NC(C)(C)C)nc2n1', '100%'),
  ('N#CCNC(=O)c1ccc(-c2ccnc(Nc3ccc(N4CCOCC4)cc3)n2)cc1', '100%'),
  ('O=C(Nc1cccc(Nc2ncc(Br)c(NCCc3cnc[nH]3)n2)c1)N1CCCC1', '100%'),
  ('CS(=O)(=O)N1CCN(Cc2cc3nc(-c4cccc5[nH]ncc45)nc(N4CCOCC4)c3s2)CC1', '100%'),
  ('COCC(=O)NC/C=C/c1ccc2ncnc(Nc3ccc(Oc4ccc(C)nc4)c(C)c3)c2c1', '98%'),
  ('COc1ccc(N(C(=O)Oc2c(C)cccc2C)c2ccnc(Nc3ccc(N4CCN(C)CC4)cc3)n2)c(OC)c1', '0%');

----------
molecular target: FRK (human); test: KINOMEscan competition binding; conditions: compound 10.0 µM
T if kinase still bound, per cent of control is below 80%. F if not; exact matches included in F.

INSERT INTO measurements (cpd_smiles, assigned_class) VALUES
  ('COCC(=O)NC/C=C/c1ccc2ncnc(Nc3ccc(Oc4ccc(C)nc4)c(C)c3)c2c1', 'F'),
  ('COc1cc(N2CCN(C)CC2)ccc1Nc1ncc2c(n1)N(C)c1ccccc1C(=O)N2C', 'T'),
  ('COc1ccc(N(C(=O)Oc2c(C)cccc2C)c2ccnc(Nc3ccc(N4CCN(C)CC4)cc3)n2)c(OC)c1', 'T'),
  ('C=CC(=O)Nc1ccc(CN(C(=O)Nc2c(Cl)c(OC)cc(OC)c2Cl)c2cc(Nc3ccc(N4CCN(C)CC4)cc3)ncn2)cc1', 'T'),
  ('COc1cc2ncnc(-n3nc(-c4ccccn4)nc3N)c2cc1OC', 'T'),
  ('CNC(=O)c1ccc(Nc2cc(Nc3ccccc3S(=O)(=O)C(C)C)c3cc[nH]c3n2)nc1', 'T'),
  ('C[C@@H](Oc1cc(-c2cnn(C3CCNCC3)c2)cnc1N)c1c(Cl)ccc(F)c1Cl', 'T'),
  ('Cc1n[nH]c2ccc(-c3cncc(OC[C@@H](N)Cc4c[nH]c5ccccc45)c3)cc12', 'F'),
  ('C=CC(=O)Nc1cc(-n2c(=O)ccc3cnc4ccc(-c5cn[nH]c5)cc4c32)ccc1C', 'F'),
  ('O=c1cc(N2CCOCC2)oc2c(-c3cccc4c3sc3ccccc34)cccc12', 'F');

----------
biological target: MAP2K4 (human); assay: KINOMEscan competition binding; settings: compound 10.0 µM
measured.endpoint: kinase still bound, per cent of control (%)

INSERT INTO assay_data (cpd_smiles, meas_value) VALUES
  ('C[C@@H](Oc1cc(-c2cnn(C3CCNCC3)c2)cnc1N)c1c(Cl)ccc(F)c1Cl', 93),
  ('COc1cc(C(=O)N2CCC(N3CCN(C)CC3)CC2)ccc1Nc1ncc2c(n1)N(C)c1ccccc1C(=O)N2C', 100),
  ('CN(C)C/C=C/C(=O)Nc1ccc(C(=O)Nc2cccc(Nc3nccc(-c4cccnc4)n3)c2)cc1', 9.8),
  ('CS(=O)(=O)N1CCN(Cc2cc3nc(-c4cccc5[nH]ncc45)nc(N4CCOCC4)c3s2)CC1', 100),
  ('COc1cc2ncn(-c3cc(OCc4ccccc4C(F)(F)F)c(C(N)=O)s3)c2cc1OC', 100),
  ('CNC(=O)c1cc(Oc2ccc(NC(=O)Nc3ccc(Cl)c(C(F)(F)F)c3)cc2)ccn1', 100),
  ('N#CCNC(=O)c1ccc(-c2ccnc(Nc3ccc(N4CCOCC4)cc3)n2)cc1', 32);

----------
biological target: SRC (human); test: KINOMEscan competition binding; conditions: compound 10.0 µM
measured.endpoint: kinase still bound, per cent of control (%)

INSERT INTO results (cpd_smiles, meas_value) VALUES
  ('CN(C)C/C=C/C(=O)Nc1ccc(C(=O)Nc2cccc(Nc3nccc(-c4cccnc4)n3)c2)cc1', 100),
  ('C=CC(=O)Nc1cc(-n2c(=O)ccc3cnc4ccc(-c5cn[nH]c5)cc4c32)ccc1C', 100),
  ('CNC(=O)c1ccc(Nc2cc(Nc3ccccc3S(=O)(=O)C(C)C)c3cc[nH]c3n2)nc1', 0.25),
  ('COCC(=O)NC/C=C/c1ccc2ncnc(Nc3ccc(Oc4ccc(C)nc4)c(C)c3)c2c1', 97),
  ('N#CCNC(=O)c1ccc(-c2ccnc(Nc3ccc(N4CCOCC4)cc3)n2)cc1', 100),
  ('CCN1CCN(C(=O)Cc2ccc(Nc3ncc(F)c(Nc4ccc(C(=O)Nc5ccccc5Cl)cc4)n3)cc2)CC1', 18),
  ('CCN(CC)CCCCNc1ncc2c(n1)N(C)C(=O)N(c1c(Cl)c(OC)cc(OC)c1Cl)C2', 100),
  ('O=C1NC(=O)/C(=C/c2ccc3nccc(-c4ccncc4)c3c2)S1', 69),
  ('COc1ccc(N(C(=O)Oc2c(C)cccc2C)c2ccnc(Nc3ccc(N4CCN(C)CC4)cc3)n2)c(OC)c1', 0.05),
  ('C=CC(=O)Nc1ccc(CN(C(=O)Nc2c(Cl)c(OC)cc(OC)c2Cl)c2cc(Nc3ccc(N4CCN(C)CC4)cc3)ncn2)cc1', 6.6);
